Experiment: Half life in rat
Format: ADME, organism-based
Conditions: in vivo
measurement-name: half-life (h)
# value in h; strip the unit string

Entry under review: CC(C)(Cc1ccc2ccccc2c1)NC[C@@H](O)COc1cccc(Cl)c1C#N.Cl . Reported half-life? 2

* * *

Molecular target: Extracellular calcium-sensing receptor (Homo sapiens, UniProt P41180)
Sequence (P41180 whole entry): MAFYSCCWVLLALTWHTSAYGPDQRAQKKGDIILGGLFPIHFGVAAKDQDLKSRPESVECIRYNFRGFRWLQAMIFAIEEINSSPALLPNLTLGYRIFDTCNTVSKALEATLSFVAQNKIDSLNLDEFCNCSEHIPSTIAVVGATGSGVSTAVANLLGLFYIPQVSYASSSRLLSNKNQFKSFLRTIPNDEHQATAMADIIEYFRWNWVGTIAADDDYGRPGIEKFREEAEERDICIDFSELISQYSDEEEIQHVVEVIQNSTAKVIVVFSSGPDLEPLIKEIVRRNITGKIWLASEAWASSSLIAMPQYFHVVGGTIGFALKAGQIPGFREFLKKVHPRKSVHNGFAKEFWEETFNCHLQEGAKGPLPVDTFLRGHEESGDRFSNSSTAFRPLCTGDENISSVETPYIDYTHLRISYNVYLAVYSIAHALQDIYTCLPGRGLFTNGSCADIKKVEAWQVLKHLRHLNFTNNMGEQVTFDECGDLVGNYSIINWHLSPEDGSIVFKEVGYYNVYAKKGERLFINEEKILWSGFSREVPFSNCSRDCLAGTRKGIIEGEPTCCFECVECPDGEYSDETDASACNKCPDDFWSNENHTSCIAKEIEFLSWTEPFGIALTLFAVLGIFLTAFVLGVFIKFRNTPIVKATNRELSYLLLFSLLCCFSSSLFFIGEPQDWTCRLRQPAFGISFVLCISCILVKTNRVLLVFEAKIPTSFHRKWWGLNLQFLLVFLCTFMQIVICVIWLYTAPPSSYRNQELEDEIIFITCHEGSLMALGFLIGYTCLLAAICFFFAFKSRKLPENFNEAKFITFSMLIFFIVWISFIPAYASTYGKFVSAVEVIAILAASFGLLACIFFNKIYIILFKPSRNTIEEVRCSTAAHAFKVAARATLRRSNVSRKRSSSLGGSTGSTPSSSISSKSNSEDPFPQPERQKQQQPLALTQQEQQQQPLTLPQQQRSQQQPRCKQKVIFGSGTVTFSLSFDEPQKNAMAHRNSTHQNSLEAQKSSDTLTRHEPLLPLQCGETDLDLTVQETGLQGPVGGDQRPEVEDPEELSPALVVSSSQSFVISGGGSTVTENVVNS
Experiment: Binding affinity to human parathyroid calcium receptor 1 expressed in HEK293 4.0-7 cells by radioligand binding assay
measurement-name: pIC50
pIC50 (log units): -log10 of the concentration in mol/L.

# example entries with known answers
Entry under review: COc1ccc(CC(C)(C)NCC(O)COc2ccccc2Cl)cc1 (racemic) . Reported pIC50? 6.00

Entry under review: COc1ccc(CC(C)(C)NC[C@@H](O)COc2cccc(Cl)c2Cl)cc1 . Reported pIC50? 7.17

Next compound, pIC50 to be filled in.
Entry under review: COc1ccc(CC(C)(C)NCC(COc2cccc(Cl)c2Cl)OC)cc1 (racemic) . Reported pIC50? 6.02

* * *

Target: Cytochrome P450 2D6 (Homo sapiens)
Sequence (P10635 whole entry): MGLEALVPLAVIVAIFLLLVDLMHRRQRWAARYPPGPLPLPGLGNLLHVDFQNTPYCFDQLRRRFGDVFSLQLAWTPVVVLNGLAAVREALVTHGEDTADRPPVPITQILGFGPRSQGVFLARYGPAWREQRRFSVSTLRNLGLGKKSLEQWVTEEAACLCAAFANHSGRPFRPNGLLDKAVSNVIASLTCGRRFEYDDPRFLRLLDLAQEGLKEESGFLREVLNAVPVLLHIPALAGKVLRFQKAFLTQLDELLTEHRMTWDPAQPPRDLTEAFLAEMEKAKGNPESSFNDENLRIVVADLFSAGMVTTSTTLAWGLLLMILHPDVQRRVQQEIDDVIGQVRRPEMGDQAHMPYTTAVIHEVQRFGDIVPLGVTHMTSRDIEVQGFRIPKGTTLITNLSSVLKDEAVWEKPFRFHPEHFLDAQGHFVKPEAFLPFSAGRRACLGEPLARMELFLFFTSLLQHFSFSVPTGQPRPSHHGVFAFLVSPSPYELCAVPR
Test: Binding affinity to CYP2D6
Format: ADME
measurement-name: pIC50
pIC50 (log units): -log10 of the concentration in mol/L.

Entry under review: COc1ccc(CC(C)(C)NC[C@H](O)COc2cccc3[nH]c(=O)[nH]c23)cc1 . Reported pIC50? 5.90

Next molecule, pIC50 to be filled in.
Entry under review: CC(C)(Cc1ccc2ccccc2c1)NC[C@@H](O)COc1cccc(Cl)c1C#N.Cl . Reported pIC50? 7.35
